Reference for the values: paper PMC10945555

# System: biofilm-producing Staphylococcus epidermidis strains
# test.protocol: Inhibition of biofilm formation (MBIC, resazurin)
# Format: cell-based
# reported.conditions: clinical strain 78 (Table S4)
observation.type: MBIC (µg/mL)
Answers are plain numbers, in µg/mL.

O=S(=O)(NC1CCN(CCC(Oc2ccc(C(F)(F)F)cc2)c2ccccc2)CC1)c1cccc(Cl)c1 (stereo not shown)	31.25
CC(=O)NC[C@H]1CN(c2ccc(N3CCOCC3)c(F)c2)C(=O)O1 [linezolid, reference compound]	15.6
O=S(=O)(NC1CCN(CCC(Oc2ccc(C(F)(F)F)cc2)c2cccs2)CC1)c1cccc(Cl)c1 (stereo not shown)	15.6

Let us examine a further case.
Exercise: Quick check: MBIC on biofilm-producing Staphylococcus epidermidis strains, item O=C(Nc1cccc(Cl)c1)NC1CCN(CCC(Oc2ccc(C(F)(F)F)cc2)c2cccs2)CC1 (stereo not shown) ?
Key: 7.8
